# System: rabbit LDL
# assay-comment: Inhibitory action on lipid peroxidation in vitro, Method A: oxidation of LDL by soybean lipoxygenase, fluorescence of the LDL fraction
# Type: biochemical
# particulars: 5 x 10^-7 M; fluorescence intensity of LDL fraction; SLO 40 µg/ml, 37°C, 24 hours; 0.5 µM
# Lookup of reported Percent (%) of Control keyed by entry
Express the result in % but write the number alone.

| compound | measured-metric | endpoint-value |
| --- | --- | --- |
| COc1ccc(CCN(C)CCCN2C(=O)CSC2c2cc(C(C)(C)C)c(O)c(C(C)(C)C)c2)cc1OC (stereo not drawn) | Percent (%) of Control | 8.7 |

**Q:** Find the recorded Percent (%) of Control belonging to CN(CCCCCN1C(=O)CSC1c1cc(C(C)(C)C)c(O)c(C(C)(C)C)c1)CCOc1ccc2c(c1)OCO2 (stereo not drawn) and report it.
**A:** 13.5

**Q:** What about this compound? COc1ccc([C@@H]2Sc3ccccc3N(CCN(C)C)C(=O)[C@@H]2OC(C)=O)cc1 [Diltiazem, reference compound]
**A:** 109.1

All values here come from patent EP0705816B1.
